# TARGET OF ASSAY: PAR1 (Homo sapiens (Human), UniProt P25116)
# Sequence (P25116 22-425): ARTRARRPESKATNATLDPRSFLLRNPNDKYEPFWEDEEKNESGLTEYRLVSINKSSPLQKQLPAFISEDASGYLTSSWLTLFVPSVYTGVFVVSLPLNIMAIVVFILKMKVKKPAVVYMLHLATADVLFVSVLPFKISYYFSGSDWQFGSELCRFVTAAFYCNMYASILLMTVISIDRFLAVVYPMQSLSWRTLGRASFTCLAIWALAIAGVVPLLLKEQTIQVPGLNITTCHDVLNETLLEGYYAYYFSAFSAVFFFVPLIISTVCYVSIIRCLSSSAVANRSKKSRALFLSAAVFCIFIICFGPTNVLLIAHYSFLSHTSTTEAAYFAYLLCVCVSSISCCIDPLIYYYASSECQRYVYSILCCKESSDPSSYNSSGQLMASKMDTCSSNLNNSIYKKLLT
# TEST DESCRIPTION: Par-1 FLIPR assay (calcium, HEK 293 cells, PAR1 activating peptide)
# ASSAY CONTEXT: PAR1 selective receptor-activating peptide at 80% activation
# Description: HEK 293 Cells were grown in media containing DMEM, 10% FBS pen/strep/L-Glutamine and non-essential amino acids. The cells were plated in 384-well PDL coated plates at 12000 cells/well and incubated overnight at 37° C./5% CO2. […] The FLIPR reads at an excitation wavelength of 480 nm and an emission wavelength of 535 nm, and performs 60 scans over a 1-2 min reading time. […]
EXPERIMENTAL READOUT: IC50 (nM)

Example results:
1. C[C@@H]1[C@H](/C=C/c2ccc(-c3ccccc3C#N)cn2)[C@H]2[C@@H](C)OC(=O)[C@]2(NC(=O)c2ccc(F)cc2)CC1(F)F: 1.7
2. C[C@H]1OC(=O)[C@]2(C(O)c3ccccn3)CC(F)(F)[C@@H](C)[C@H](/C=C/c3ccc(-c4ccccc4C#N)cn3)[C@H]12 (stereo partly shown): 3
3. C[C@H]1OC(=O)[C@]2(NC(=O)c3ccc(Cl)nc3)CC(F)(F)[C@@H](C)[C@H](/C=C/c3ccc(-c4ccccc4C#N)cn3)[C@H]12: 3
4. Cc1cccc(-c2ccc(/C=C/[C@@H]3[C@@H]4[C@@H](C)OC(=O)[C@]4(N)CC(F)(F)[C@H]3C)nc2)c1C#N: 3.3

I: CC1[C@H](/C=C/c2ccc(-c3ccccc3C#N)cn2)C2[C@@H](C)OC(=O)[C@]2(NCc2ncco2)CC1(F)F (stereo partly shown)
II: CC1[C@H](/C=C/c2ccc(-c3ccccc3C#N)cn2)C2[C@@H](C)OC(=O)[C@@]2(NC(=O)c2ccn(C)n2)CC1(F)F (stereo partly shown)
III: C[C@H]1OC(=O)[C@]2(C(O)c3cocn3)CC(F)(F)[C@@H](C)[C@H](/C=C/c3ccc(-c4ccccc4C#N)cn3)[C@H]12 (stereo partly shown) [Example 22b]
Order the records by IC50, with each subsequent value no larger than the one before. When ranking, write the labels in the order the request describes. I, II, III

1: C[C@H]1OC(=O)[C@]2(C(=O)NC3CCC3)CC(F)(F)[C@@H](C)[C@H](/C=C/c3ccc(-c4ccccc4C#N)cn3)[C@H]12
2: C[C@H]1OC(=O)[C@]2(NCc3cscn3)CC(F)(F)[C@@H](C)[C@H](/C=C/c3ccc(-c4ccccc4C#N)cn3)[C@H]12
Which shows the larger IC50 value: 1 or 2 ? State your choice using its label. 1
(1: 3.3 nM, 2: 1.6 nM)

---

# TARGET OF ASSAY: UniProt P25116
# TEST DESCRIPTION: Par-1 FLIPR assay (calcium, HEK 293 cells, PAR1 activating peptide)
# ASSAY CONTEXT: PAR1 selective receptor-activating peptide at 80% activation
EXPERIMENTAL READOUT: IC50 (nM)

Example results:
1. C[C@H]1OC(=O)[C@]2(NCc3nccn3C)CC(F)(F)[C@@H](C)[C@H](/C=C/c3ccc(-c4ccccc4C#N)cn3)[C@H]12: 3
2. C[C@H]1OC(=O)[C@]2(NCc3ccccn3)CC(F)(F)[C@@H](C)[C@H](/C=C/c3ccc(-c4ccccc4C#N)cn3)[C@H]12: 3.1
3. C[C@H]1OC(=O)[C@]2(C(=O)NCCO)CC(F)(F)[C@@H](C)[C@H](/C=C/c3ccc(-c4cccc(F)c4)cn3)[C@H]12: 17

a: C[C@H]1OC(=O)[C@]2(N)CC(F)(F)[C@@H](C)[C@H](/C=C/c3ccc(-c4ccccc4-c4nnn[nH]4)cn3)[C@H]12
b: CC1[C@H](/C=C/c2ccc(-c3ccccc3C#N)cn2)C2[C@@H](C)OC(=O)[C@]2(NCc2nccs2)CC1(F)F (stereo partly drawn)
Which shows the larger IC50 value: a or b ? State your choice using its label. a
(a: 872 nM, b: 2.2 nM)

A: C[C@H]1OC(=O)[C@]2(Cc3nnn(C)n3)CC(F)(F)[C@@H](C)[C@H](/C=C/c3ccc(-c4ccccc4Cl)cn3)C12 (stereo partly drawn) [Example 29a]
B: C[C@H]1OC(=O)[C@]2(NC(=O)NC3CCC3)CC(F)(F)[C@@H](C)[C@H](/C=C/c3ccc(-c4ccccc4C#N)cn3)[C@H]12
C: C[C@H]1OC(=O)[C@]2(C(O)c3ncco3)CC(F)(F)[C@@H](C)[C@H](/C=C/c3ccc(-c4ccccc4C#N)cn3)[C@H]12 (single isomer, unassigned) [Example 23a]
Arrange the 3 molecules by rising IC50, starting with the smallest. When ranking, write the labels in the order the request describes. A, C, B

Where these numbers come from: patent US9340530B2
